These measurements were taken from the supplement of paper PMC8882468.

- Test system: HCI-024 (organoid from a breast cancer xenograft)
- protocol summary: CTG-3D luminescence at 96 h relative to day-0 seeding control (ratio to day 0); higher = more growth / less cytotoxicity; PDxO 3D drug screen (set 2), 96 h, CTG-3D normalised to day-0 seeding control.
- condition notes: 0.1 µM; days in culture: 202
Returns fulfilled if the recorded CTG-3D luminescence at 96 h is greater than or equal to 1, and not fulfilled otherwise.

CC(=O)c1c(C)c2cnc(Nc3ccc(N4CCNCC4)cn3)nc2n(C2CCCC2)c1=O [palbociclib] | fulfilled
Cc1c(CN2CCN(C(=O)[C@H](C)O)CC2)sc2c(N3CCOCC3)nc(-c3cnc(N)nc3)nc12 [apitolisib] | fulfilled
CS(=O)(=O)CCNCc1ccc(-c2ccc3ncnc(Nc4ccc(OCc5cccc(F)c5)c(Cl)c4)c3c2)o1 [lapatinib] | not fulfilled

[in] Quick check, CTG-3D luminescence at 96 h >= 1? CCOc1ccn(-c2ccc(F)cc2)c(=O)c1C(=O)Nc1ccc(Oc2ccnc(N)c2Cl)c(F)c1 [ASLAN002]
[out] fulfilled

[in] Does the reported CTG-3D luminescence at 96 h for COc1cccc2c1C(=O)c1c(O)c3c(c(O)c1C2=O)C[C@@](O)(C(=O)CO)C[C@@H]3O[C@H]1C[C@H](N)[C@@H](O)[C@H](C)O1 [epirubicin] fall at or above the 1 mark?
[out] not fulfilled

[in] Threshold query (CTG-3D luminescence at 96 h >= 1) on CC(=O)O[C@@]12CO[C@@H]1C[C@H](O)[C@@]1(C)C(=O)[C@H](O)C3=C(C)[C@@H](OC(=O)[C@H](O)[C@@H](NC(=O)OC(C)(C)C)c4ccccc4)C[C@@](O)([C@@H](OC(=O)c4ccccc4)[C@H]21)C3(C)C [docetaxel]
[out] fulfilled

[in] Hello, I need to know if C[C@@H](Nc1cc(F)cc(F)c1)c1cc(C(=O)N(C)C)cc2c(=O)cc(N3CCOCC3)oc12 [AZD-8186] has measured CTG-3D luminescence at 96 h not below 1. Thanks!
[out] fulfilled

###

Listed here are compounds together with their documented CTG-3D luminescence at 96 h.
- Test system: HCI-023 (organoid from a triple-negative breast cancer xenograft)
- protocol summary: CTG-3D luminescence at 96 h relative to day-0 seeding control (ratio to day 0); higher = more growth / less cytotoxicity; PDxO 3D drug screen (set 2), 96 h, CTG-3D normalised to day-0 seeding control.
- condition notes: 100 µM; days in culture: 252
Write the number on its own, no unit after it.

C[C@@H](Nc1cc(F)cc(F)c1)c1cc(C(=O)N(C)C)cc2c(=O)cc(N3CCOCC3)oc12 | 1.5

[in] State the recorded CTG-3D luminescence at 96 h for this entry: CCOc1ccn(-c2ccc(F)cc2)c(=O)c1C(=O)Nc1ccc(Oc2ccnc(N)c2Cl)c(F)c1
[out] 1.15

[in] What does the record list as CTG-3D luminescence at 96 h for CC(C)n1nc(-c2ccc3oc(N)nc3c2)c2c(N)ncnc21 ?
[out] 0.388

[in] Dear colleague, I am looking for the recorded CTG-3D luminescence at 96 h of the following compound: CO[C@H]1C[C@@H]2CC[C@@H](C)[C@@](O)(O2)C(=O)C(=O)N2CCCC[C@H]2C(=O)O[C@H]([C@H](C)C[C@@H]2CC[C@@H](OCCO)[C@H](OC)C2)CC(=O)[C@H](C)/C=C(\C)[C@@H](O)[C@@H](OC)C(=O)[C@H](C)C[C@H](C)/C=C/C=C/C=C/1C
[out] -0.00273

###

// CTG-3D luminescence at 96 h lookup, one value per entry
- Tested on: HCI-002 (organoid from a triple-negative breast cancer xenograft)
- protocol summary: CTG-3D luminescence at 96 h relative to day-0 seeding control (ratio to day 0); higher = more growth / less cytotoxicity; PDxO 3D drug screen, 96 h, CTG-3D normalised to day-0 seeding control.
- condition notes: 0.005 µM; days in culture: 82
Respond with the number and no other words.

[in] Given the compound CC(=O)O[C@H]1C(=O)[C@@]2(C)[C@H]([C@H](OC(=O)c3ccccc3)[C@]3(O)C[C@H](OC(=O)[C@H](O)[C@@H](NC(=O)c4ccccc4)c4ccccc4)C(C)=C1C3(C)C)[C@]1(OC(C)=O)CO[C@@H]1C[C@@H]2O , what is its reported CTG-3D luminescence at 96 h?
[out] 0.859

[in] Bench note: what CTG-3D luminescence at 96 h did C=CC(=O)N1CCC[C@@H](n2nc(-c3ccc(Oc4ccccc4)cc3)c3c(N)ncnc32)C1 show?
[out] 2.43

[in] Tell me the measured CTG-3D luminescence at 96 h of NC1(C(=O)N[C@@H](CCO)c2ccc(Cl)cc2)CCN(c2nc[nH]c3nccc2-3)CC1 , please.
[out] 1.95

###

- System: HCI-025 (organoid from a breast cancer xenograft)
- protocol summary: CTG-3D luminescence at 96 h relative to day-0 seeding control (ratio to day 0); higher = more growth / less cytotoxicity; PDxO 3D drug screen, 96 h, CTG-3D normalised to day-0 seeding control.
- condition notes: 10 µM; days in culture: 218
reported metric: CTG-3D luminescence at 96 h
Keep it simple and answer with nothing but the number.

Example entries and their recorded answers appear below.
CN(Cc1cnc2nc(N)nc(N)c2n1)c1ccc(C(=O)N[C@@H](CCC(=O)O)C(=O)O)cc1 [methotrexate] | 1.26
COc1cccc2c1C(=O)c1c(O)c3c(c(O)c1C2=O)C[C@@](O)(C(=O)CO)C[C@@H]3O[C@H]1C[C@H](N)[C@H](O)[C@H](C)O1 [doxorubicin] | 0.0154

[in] Which CTG-3D luminescence at 96 h reading was recorded for the compound Cc1cc(Nc2ncc(Cl)c(Nc3ccccc3S(=O)(=O)C(C)C)n2)c(OC(C)C)cc1C1CCNCC1 [ceritinib] ?
[out] 1.48

[in] GET /values?readout=CTG-3D luminescence at 96 h&item= C/C=C1\NC(=O)[C@H]2CSSCC/C=C/[C@H](CC(=O)N[C@H](C(C)C)C(=O)N2)OC(=O)[C@H](C(C)C)NC1=O [romidepsin]
[out] -0.329

[in] Fill in the blank: the reported CTG-3D luminescence at 96 h of NC1(C(=O)N[C@@H](CCO)c2ccc(Cl)cc2)CCN(c2nc[nH]c3nccc2-3)CC1 [capivasertib] is ____.
[out] 0.592

[in] Data request, read-out CTG-3D luminescence at 96 h, for C=CC(=O)N1CCC[C@@H](n2nc(-c3ccc(Oc4ccccc4)cc3)c3c(N)ncnc32)C1 [ibrutinib]
[out] 1.75

[in] CTG-3D luminescence at 96 h lookup needed for C=CCn1c(=O)c2cnc(Nc3ccc(N4CCN(C)CC4)cc3)nc2n1-c1cccc(C(C)(C)O)n1 [adavosertib] , thanks.
[out] 0.215

[in] Look at this compound and give its reported CTG-3D luminescence at 96 h. CCc1c2c(nc3ccc(O)cc13)-c1cc3c(c(=O)n1C2)COC(=O)[C@]3(O)CC [SN-38]
[out] 0.0616

[in] May I ask what CTG-3D luminescence at 96 h has been recorded for C[C@H](NC(=O)CCC(F)(F)F)C(=O)N[C@@H]1C(=O)N(CCO)c2ncccc2-c2ccccc21 [crenigacestat] ?
[out] 2.32

###

- Test system: HCI-019 (organoid from a triple-negative breast cancer xenograft)
- protocol summary: CTG-3D luminescence at 96 h relative to day-0 seeding control (ratio to day 0); higher = more growth / less cytotoxicity; PDxO 3D drug screen, 96 h, CTG-3D normalised to day-0 seeding control.
- condition notes: 0.1 µM; days in culture: 110
reported metric: CTG-3D luminescence at 96 h
I only need the number, thanks.

Worked cases, CTG-3D luminescence at 96 h given:
CCN1CCN(Cc2ccc(Nc3ncc(F)c(-c4cc(F)c5nc(C)n(C(C)C)c5c4)n3)nc2)CC1 | 2.43
C=CCn1c(=O)c2cnc(Nc3ccc(N4CCN(C)CC4)cc3)nc2n1-c1cccc(C(C)(C)O)n1 | 1.52
CN(Cc1cnc2nc(N)nc(N)c2n1)c1ccc(C(=O)N[C@@H](CCC(=O)O)C(=O)O)cc1 [methotrexate] | 1.92
CS(=O)(=O)c1ccc(C(=O)Nc2ccc(Cl)c(-c3ccccn3)c2)c(Cl)c1 | 2.46

[in] CTG-3D luminescence at 96 h of COc1cc2c(Oc3ccc4[nH]c(C)cc4c3F)ncnc2cc1OCCCN1CCCC1 on HCI-019?
[out] 2.39

###

Reported CTG-3D luminescence at 96 h by item:
- Tested on: HCI-016 (organoid from a triple-negative breast cancer xenograft)
- protocol summary: CTG-3D luminescence at 96 h relative to day-0 seeding control (ratio to day 0); higher = more growth / less cytotoxicity; PDxO 3D drug screen, 96 h, CTG-3D normalised to day-0 seeding control.
- condition notes: 100 µM; days in culture: 190
Write no unit; give the number alone.

The examples below pair each entry with its known result.
C=CCn1c(=O)c2cnc(Nc3ccc(N4CCN(C)CC4)cc3)nc2n1-c1cccc(C(C)(C)O)n1 | 0.0792
CCN1CCN(Cc2ccc(Nc3ncc(F)c(-c4cc(F)c5nc(C)n(C(C)C)c5c4)n3)nc2)CC1 | 0.00813
C[C@]12CC[C@@H]3c4ccc(O)cc4C[C@@H](CCCCCCCCC[S+]([O-])CCCC(F)(F)C(F)(F)F)[C@H]3[C@@H]1CC[C@@H]2O (some centres undefined) | 1.07

Consider the record given below.
[in] Any idea what CTG-3D luminescence at 96 h came out for CC(C)(C(=O)NCC(F)(F)C(F)(F)F)C(=O)N[C@@H]1C(=O)Nc2ccccc2-c2ccccc21 on HCI-016?
[out] 0.817
